target: HPK1 (SLP76 phosphorylation at Ser376 in Jurkat and EL-4 cells) (Homo sapiens, UniProt Q92918); assay type: cell-based; settings: αCD3/αCD28 Dynabeads stimulated cells, pSLP76 (Ser376) detection; read-out: HPK1 pSLP76 IC50
Sequence (Q92918 whole entry, looked up): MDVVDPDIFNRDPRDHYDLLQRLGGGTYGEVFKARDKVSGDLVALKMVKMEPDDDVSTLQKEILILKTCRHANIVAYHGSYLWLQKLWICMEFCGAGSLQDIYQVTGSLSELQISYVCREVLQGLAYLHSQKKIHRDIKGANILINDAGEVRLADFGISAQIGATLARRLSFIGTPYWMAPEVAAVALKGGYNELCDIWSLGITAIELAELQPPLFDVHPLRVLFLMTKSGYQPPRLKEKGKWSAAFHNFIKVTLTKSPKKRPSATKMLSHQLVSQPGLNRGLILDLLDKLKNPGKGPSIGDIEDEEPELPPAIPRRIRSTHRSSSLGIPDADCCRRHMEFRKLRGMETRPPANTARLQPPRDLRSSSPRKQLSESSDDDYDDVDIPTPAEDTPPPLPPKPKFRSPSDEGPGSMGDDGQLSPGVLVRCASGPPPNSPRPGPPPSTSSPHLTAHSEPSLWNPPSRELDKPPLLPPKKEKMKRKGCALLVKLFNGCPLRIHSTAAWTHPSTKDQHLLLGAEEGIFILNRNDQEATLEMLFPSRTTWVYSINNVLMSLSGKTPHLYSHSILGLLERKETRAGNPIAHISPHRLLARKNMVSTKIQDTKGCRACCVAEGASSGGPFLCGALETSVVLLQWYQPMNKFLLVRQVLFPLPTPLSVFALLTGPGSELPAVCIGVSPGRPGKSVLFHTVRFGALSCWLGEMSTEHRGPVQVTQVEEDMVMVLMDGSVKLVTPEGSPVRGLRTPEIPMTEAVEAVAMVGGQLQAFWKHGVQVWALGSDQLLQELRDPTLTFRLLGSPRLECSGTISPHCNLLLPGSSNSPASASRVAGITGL
Observed property: IC50

Look up and state reported IC50 for Cc1c(N2CCc3cnc(Nc4ccc(NCCN(C)C)c(F)c4)cc3C2)cnc2c1NCCO2
500 to 1000 nM

Look up and state reported IC50 for Cc1c(N2CCc3cnc(Nc4ccc(N5CCC(O)CC5)cc4)nc3C2)cnc2c1NCCO2
500 to 1000 nM

Look up and state reported IC50 for Cc1c(N2CCc3cnc(Nc4ccc(C5(S(C)(=O)=O)CC5)nc4)nc3C2)cnc2c1NCCO2
500 to 1000 nM

Look up and state reported IC50 for COCCS(=O)(=O)Cc1ccc(Nc2ncc3c(n2)CN(c2cnc4c(c2C)NCCO4)CC3)cc1
< 500 nM

Look up and state reported IC50 for Cc1c(N2CCc3cnc(Nc4ccnc(C(C)(C)O)c4)nc3C2)cnc2c1NCCO2
500 to 1000 nM
